method-description: Pharmacokinetics of Compound 1 delivered via solid chow (plasma, LC-MS/MS)
Format: in vivo, C57BL/6J mice
reported-conditions: C57BL/6J, mouse, plasma, po, 0.3 % (w/w) in chow, C57BL/6J mice, 0.3% (w/w) in chow, Day 3, plasma
Experimental: The pharmacokinetics of Compound 1 at three doses (0.1%, 0.3% or 1% (w/w)) when delivered via solid chow was determined in satellite wild type C57BL/6J mice. The first day Compound 1 was provided was defined as Day 0. On Day 3 and on Day 13 blood was obtained from mice at specified time points and the plasma concentration of Compound 1 was measured using liquid chromatography-tandem mass spectrometry. […]
reported-endpoint: Cmax (ng/mL)
Please reply with the bare figure in ng/mL and do not write the unit itself.

[Q] Which Cmax is reported for this compound? O=C(O)c1cccc(-c2noc(-c3ccccc3F)n2)c1
[A] 19000

---

method-description: Pharmacokinetics of Compound 1 delivered via solid chow (plasma, LC-MS/MS)
Format: in vivo, C57BL/6J mice
reported-conditions: C57BL/6J, mouse, plasma, po, 1 % (w/w) in chow, C57BL/6J mice, 1.0% (w/w) in chow, Day 3, 9 am to 10 pm; read-out: AUC9-10
Method: The pharmacokinetics of Compound 1 at three doses (0.1%, 0.3% or 1% (w/w)) when delivered via solid chow was determined in satellite wild type C57BL/6J mice. The first day Compound 1 was provided was defined as Day 0. On Day 3 and on Day 13 blood was obtained from mice at specified time points and the plasma concentration of Compound 1 was measured using liquid chromatography-tandem mass spectrometry. […]
reported-endpoint: AUC
Answer with the value and then the unit.

[Q] Which AUC is reported for this molecule? O=C(O)c1cccc(-c2noc(-c3ccccc3F)n2)c1
[A] 420 µg·h/mL

---

method-description: Pharmacokinetics of Compound 1 delivered via solid chow (plasma, LC-MS/MS)
Type: in vivo, C57BL/6J mice
reported-conditions: C57BL/6J, mouse, plasma, po, 0.3 % (w/w) in chow, C57BL/6J mice, 0.3% (w/w) in chow, Day 13, 9 am to 10 pm; read-out: AUC9-10
reported-endpoint: AUC (ng·h/mL)
Please reply with the bare figure in ng·h/mL and do not write the unit itself.

[Q] Which AUC is reported for this compound? O=C(O)c1cccc(-c2noc(-c3ccccc3F)n2)c1
[A] 89000

---

method-description: Pharmacokinetics of Compound 1 delivered via solid chow (plasma, LC-MS/MS)
Assay type: in vivo, C57BL/6J mice
reported-conditions: C57BL/6J, mouse, plasma, po, 1 % (w/w) in chow, C57BL/6J mice, 1.0% (w/w) in chow, Day 3, plasma
reported-endpoint: Cmax (ng/mL)
Please reply with the bare figure in ng/mL and do not write the unit itself.

[Q] Which Cmax is reported for this compound? O=C(O)c1cccc(-c2noc(-c3ccccc3F)n2)c1 [Compound 1]
[A] 41000

---

method-description: Pharmacokinetics of Compound 1 delivered via solid chow (plasma, LC-MS/MS)
Format: in vivo, C57BL/6J mice
reported-conditions: C57BL/6J, mouse, plasma, po, 0.3 % (w/w) in chow, C57BL/6J mice, 0.3% (w/w) in chow, Day 13, plasma
Description: The pharmacokinetics of Compound 1 at three doses (0.1%, 0.3% or 1% (w/w)) when delivered via solid chow was determined in satellite wild type C57BL/6J mice. The first day Compound 1 was provided was defined as Day 0. On Day 3 and on Day 13 blood was obtained from mice at specified time points and the plasma concentration of Compound 1 was measured using liquid chromatography-tandem mass spectrometry. […]
reported-endpoint: Cmax (ng/mL)
Please reply with the bare figure in ng/mL and do not write the unit itself.

[Q] Which Cmax is reported for this compound? O=C(O)c1cccc(-c2noc(-c3ccccc3F)n2)c1
[A] 13000
